# Test system: luciferase-expressing P. berghei liver stage parasites in HepG2 cells
# method-description: Inhibition of liver-stage development assay (ILSDA), Method 2 (WRAIR, 96-well)
# Type: cell-based, Plasmodium berghei
# measurement-parameters: Plasmodium berghei, HepG2, Method 2; Hill fit, 50% of maximum activity response; read-out: AC50
This listing pairs compounds with measured log10(AC50).
Transform log10 | Measure AC50 | Unit nM

Cc1ccc(Nc2nc(NCCO)c3ccccc3n2)cc1C | 2.75
O=C(Nc1ccc(Br)cc1)c1ccc(F)c([S+](=O)([O-])NC2CCCCCC2)c1 | 2.80
COc1ccc(C2=Nn3c([n+](C)c4ccccc43)SC2)cc1 | 4.05
CCc1ccc(C2Sc3ccccc3N=C3C2=C(O)c2ccccc23)cc1 (centres unmarked) | 2.60

GET /values?readout=log10(AC50)&system=luciferase-expressing P. berghei liver stage parasites in HepG2 cells&item= O=C1c2ccccc2C2=Nc3ccccc3SC(c3ccc(Cl)cc3)C12 (centres unmarked) 3.60

GET /values?readout=log10(AC50)&system=luciferase-expressing P. berghei liver stage parasites in HepG2 cells&item= `COc1ccc(-n2nc(C)c([C@@H]3C=C[C@@H](NCc4ccc(N(C)C)cc4)C3)c2C)cc1` 3.45

GET /values?readout=log10(AC50)&system=luciferase-expressing P. berghei liver stage parasites in HepG2 cells&item= `O=C(NC1CC1)c1ccc(CSCc2ccccc2Cl)o1` 2.30

GET /values?readout=log10(AC50)&system=luciferase-expressing P. berghei liver stage parasites in HepG2 cells&item= `CC(=O)Nc1ccc(CN2CCc3nc(C(C)C)nc(-c4ccc(Cl)cc4)c3CC2)cc1` 2.70

GET /values?readout=log10(AC50)&system=luciferase-expressing P. berghei liver stage parasites in HepG2 cells&item= `CC1=C[C@@H](CNCc2cccnc2)[C@H](C(C)C)C[C@H]1Cc1nnc(-c2ccc([N+](=O)[O-])cc2)o1` 2.75

GET /values?readout=log10(AC50)&system=luciferase-expressing P. berghei liver stage parasites in HepG2 cells&item= `CCC(CC)c1cc([C@H]2CN3CC[C@H]2C[C@@H]3CN[S+](=O)([O-])c2cccs2)nc(-c2ccncc2)n1` 2.80

GET /values?readout=log10(AC50)&system=luciferase-expressing P. berghei liver stage parasites in HepG2 cells&item= `Cc1ccc(NC2=C(c3ccc(C(F)(F)F)cc3)C(=O)c3ccccc32)cc1F` 2.05

* * *

# Test system: P. falciparum Dd2 Cytb V259L
# method-description: SYBR Green ABS proliferation assay, NCGC00473217 selected clone F06
# Assay type: cell-based, Plasmodium falciparum
# measurement-parameters: Plasmodium falciparum, DD2, cytochrome b mutant line, third value triple, c9; […]; read-out: log AC50, mean (converted)
measurement-label: AC50 (µM)
Answer in µM, number only, no unit symbol.

Some entries whose results are on file:
Cc1ccc(CN2CCc3nc(C4CC4)nc(-c4ccc(O)cc4)c3CC2)cc1 [NCGC00480348-01] | 6.93
CCCN1C(CC(C)C)=N[S+](=O)([O-])c2cc(NC(=O)c3cccc(C#N)c3)ccc21 [NCGC00531772-01] | 0.893

# AC50 lookup, item CC(C)CC1=N[S+](=O)([O-])c2cc(NC(=O)c3ccc(F)cc3)ccc2N1 [NCGC00532402-01] 0.399

# AC50 lookup, item COc1ccc(-c2nc(C3CC3)nc3c2CCN(C(=O)c2ccc(C(F)(F)F)cc2)CC3)cc1 [NCGC00374638-01] 13.8

# AC50 lookup, item CC(C)c1nc2c(c(-c3ccc(Cl)cc3)n1)CCN(C(=O)c1ccc(C(F)(F)F)cc1)CC2 [NCGC00374584-01] 7.5

# AC50 lookup, item COc1ccc(-c2nc(C(C)C)nc3c2CCN(S(=O)(=O)c2cccc(C(F)(F)F)c2)CC3)cc1 [NCGC00479522-01] 12.8

# AC50 lookup, item CC(=O)Nc1ccc(CN2CCc3nc(C(C)C)nc(-c4ccc(Cl)cc4)c3CC2)cc1 [NCGC00374598-01] 4.91

* * *

This listing pairs molecules with measured viability at 3 µM.
# method-description: in vitro
# measurement-parameters: human, hepg2-a16-cd81egfp cells, % viability
Answer in %, number only, no unit symbol.

# viability at 3 µM lookup, item `O=C(Nc1nc(-c2ccccn2)cs1)c1cccc(-n2cnnn2)c1` 63.7

# viability at 3 µM lookup, item `CC[C@@H](C(=O)[C@@H](C)[C@@H](O)[C@H](C)CCc1ccc(C)c(O)c1C(=O)O)[C@H]1O[C@](CC)([C@H]2CC[C@](O)(CC)[C@H](C)O2)C[C@@H]1C` 27.3

# viability at 3 µM lookup, item `COc1ccc(C)cc1Nc1nc(N)c2cc(OC)c(OC)cc2n1` 94.9

# viability at 3 µM lookup, item `COc1cccc(-c2c(C#N)c(N)nc3c2c(C)nn3-c2ccccc2)c1O` 90.5

* * *

# Test system: P. berghei-ANKA-GFP-LucCON liver stage parasites in HepG2-A16-CD81EGFP cells
# method-description: P. berghei liver stage Pb-Luc assay, Method 1 (UCSD, 1536-well)
# Assay type: cell-based, Plasmodium berghei
# measurement-parameters: P. berghei liver stage, 1 µM compound treatment (10 mM stocks), replicate 1, normalized, average of 2 wells on a 1536 well plate
measurement-label: PbLuc 1uM growth rep1 (%)
Answer in %, number only, no unit symbol.

Cc1ccc(NC2=C/C(=N/S(=O)(=O)c3cccs3)c3ccccc3C2=O)cc1C | 82
C=C(C)CSc1nc2sc3c(c2c(=O)n1-c1ccc(C)cc1)CCN(C)C3 | 91
CCSc1nc2sc3c(c2c(=O)n1-c1ccccc1)CCN(C(C)C)C3 | 97
CC(C)N(Cc1ccccc1)C(=O)CN1C(=O)COc2ccc(S(=O)(=O)N3CCCCCC3)cc21 | 121

Consider the record given below.
# PbLuc 1uM growth rep1 lookup, item Cc1ccc(-c2cc(C(=O)Nc3ccc(S(=O)(=O)N4CC(C)OC(C)C4)cc3)[nH]n2)c(O)c1 (centres unmarked) 151

* * *

This listing pairs compounds with measured Individual replicates / Log AC50 (M).
# Tested on: Plasmodium falciparum Dd2-attB (parental line), asexual blood stages
# Construct: Dd2-attB, the isogenic parental line
# method-description: microbe, parasite or virus in culture
# Set-up: replicate k of 3 (each line is one of three independent assays; the three lines of one compound and parasite line follow each other)
# measurement-parameters: 72 h; n = 1
# Experimental: The overexpression of the fumarate-dependent yeast DHODH confers resistance to compounds that inhibit the parasite mETC, or the parasite DHODH enzyme that depends on ubiquinone provided by the parasite mETC. Assays were performed in three independent assays on a subset of compounds, and differences between the Dd2-attB parental line and the ScDHODH transgenic line were analyzed using two-sided Student’s t-tests.

Oc1ccc(COCc2ccc(F)cc2)c2cccnc12 | -4.7986 Log AC50 (M)

# Individual replicates / Log AC50 (M) lookup, item `CCOC(=O)c1ccc(O)c2ncc(N3CCC(C(=N)N)CC3)cc12` -5.1486 Log AC50 (M)

# Individual replicates / Log AC50 (M) lookup, item `O=C(c1ccccc1F)N1c2nc(-c3ccco3)nn2C2(CCCCC2)[C@@H]2CCCC[C@@H]21` -4.7986 Log AC50 (M)

# Individual replicates / Log AC50 (M) lookup, item O=C(O)c1ccnc(-n2ncc(C(OCCN3CCCCC3)c3cccc(-c4ccccc4)c3)c2-c2cccc(-c3ccccc3)c2)c1 (centres unmarked) -5.3986 Log AC50 (M)

# Individual replicates / Log AC50 (M) lookup, item `CN(C)CCCNC(=O)c1ccc(-c2cnc3c(O)cccc3c2)cc1` -4.9986 Log AC50 (M)

* * *

This listing pairs compounds with measured AC50.
# Test system: P. falciparum Dd2 Cytb V259L
# method-description: SYBR Green ABS proliferation assay, NCGC00473217 selected clone F06
# Assay type: cell-based, Plasmodium falciparum
# measurement-parameters: Plasmodium falciparum, DD2, NCGC00473217 selected clone; read-out: AC50 Log[M] ± SD, Cytb V259L (converted)
Answer in M, number only, no unit symbol.

Some entries whose results are on file:
CCCN1C(c2ccccc2)=NS(=O)(=O)c2cc(NC(=O)c3cccs3)ccc21 | 4.27e-06
CCCN1C(CC(C)C)=NS(=O)(=O)c2cc(NC(=O)C3CCCC3)ccc21 | 2.14e-06
CCCN1C(CC(C)C)=NS(=O)(=O)c2cc(NC(=O)c3sccc3Cl)ccc21 | 3.72e-06
OC(c1cc(C(F)(F)F)nc2c(C(F)(F)F)cccc12)C1CCCCN1 (centres unmarked) [Mefloquine, mefloquine, reference compound] | 1.23e-07

Consider the record given below.
# AC50 lookup, item `CCCN1C(CC(C)C)=NS(=O)(=O)c2cc(NC(=O)c3sccc3C)ccc21` 6.76e-06
